Property: TGI; scope: individual compounds
System: SF-268 CNS
ASSAY NOTES: NCI tumour cell line growth inhibition, 48 h

The cases that follow already have their TGI on record.
{"COMPOUND": "O=C(O)c1cccc(CN2CCCCC2)c1", "TARGET SYSTEM": "SF-268 CNS", "RESULT": "> 100 µM"}
{"COMPOUND": "OC(c1ccc(F)cc1)(c1ccc(F)cc1)C1CC1", "TARGET SYSTEM": "SF-268 CNS", "RESULT": "> 100 µM"}
{"COMPOUND": "Clc1ccc(CN2COc3c(ccc4cccnc34)C2)cc1Cl", "TARGET SYSTEM": "SF-268 CNS", "RESULT": "12.1 µM"}

Please tell me: TGI of Cc1c(-c2ccc(O)c(O)c2)oc(=O)c2c(O)cc(O)cc12 , system SF-268 CNS?
> 100 µM

Please tell me: TGI of Cc1ccnc2[nH]c(-c3cccc4ccccc34)cc(=O)c12 , system SF-268 CNS?
> 100 µM

Please tell me: TGI of N#CCCN1C/C(=C/c2ccccc2)C(=O)/C(=C/c2ccccc2)C1 , system SF-268 CNS?
8.88 µM

Please tell me: TGI of CC1(C)CSCC(C)(C)C(=N/N)/C1=N\N , system SF-268 CNS?
> 100 µM

Please tell me: TGI of CC(=O)NC1C(O)CC(OCCCSCCN)(C(=O)O)OC1C(O)C(O)CO (stereo unspecified) , system SF-268 CNS?
> 100 µM

Please tell me: TGI of CC1(C)CC2(S(=O)(=O)c3ccccc3)ON1CC2S(=O)(=O)c1ccccc1 (stereo unspecified) , system SF-268 CNS?
> 100 µM

Please tell me: TGI of CCOC(=O)C1N(S(=O)(=O)c2ccc(C)cc2)CCC12C(c1ccc(OC)c(OC)c1)=Nc1ccccc12 (stereo unspecified) , system SF-268 CNS?
> 100 µM

Please tell me: TGI of Cc1c(CN)c(C)c(CN)c(C)c1CN , system SF-268 CNS?
> 100 µM

Please tell me: TGI of Cc1noc(NS(=O)(=O)c2ccc(NC(=O)c3ccc4[nH]c5ccccc5c(=O)c4c3)cc2)c1C , system SF-268 CNS?
> 100 µM

Please tell me: TGI of Cn1cccc(C(=O)c2ccccc2)c1=O , system SF-268 CNS?
> 100 µM

Please tell me: TGI of CCN1CC2(COC)C(O)CC(OC)C34C5CC6(O)C(OC)C=C(C5C6OC(=O)c5ccc(OC)c(OC)c5)C(C(OC)C23)C14 (stereo unspecified) , system SF-268 CNS?
> 7.5 µM

Please tell me: TGI of COC(=O)[C@H](Cc1c[nH]c2ccccc12)NC(=O)OCC1OC(n2cc(C)c(=O)[nH]c2=O)CC1N=[N+]=[N-] (stereo partly specified) , system SF-268 CNS?
> 100 µM

Please tell me: TGI of CC(C)(C)c1ccc2c(c1)S(=O)(=O)Nc1cccc(c1)NS(=O)(=O)c1cc(C(C)(C)C)ccc1OCCOCCO2 , system SF-268 CNS?
> 100 µM
